System: BHK-21
Experiment: Cytotoxicity against wild type BHK21 cells assessed as reduction in cell viability at 20 uM after 72 hrs by MTT assay
Assay type: cell-based, Mesocricetus auratus
Details: hamster, bhk-21, 72 h
property-measured: Activity

structure_string=CC[C@H]1CN(C)[C@H]2Cc3c([nH]c4ccccc34)/C(=N/N=C\c3ccc(O)c(OC)c3)C[C@H]1[C@H]2C(=O)OC target_desc=BHK-21 property_measured=Activity measured=Non-Toxic
structure_string=CC[C@H]1CN(C)[C@H]2Cc3c([nH]c4ccccc34)/C(=N/N=C\c3ccc[nH]3)C[C@H]1[C@H]2C(=O)OC target_desc=BHK-21 property_measured=Activity measured=Non-Toxic
structure_string=CC[C@H]1CN(C)[C@H]2Cc3c([nH]c4ccccc34)/C(=N/N=C\c3cccc(Br)c3)C[C@H]1[C@H]2C(=O)OC target_desc=BHK-21 property_measured=Activity measured=Non-Toxic
structure_string=CC[C@@H]1CN(C)[C@H]2Cc3c([nH]c4ccccc34)/C(=N/N=C\c3cccc(Br)c3)C[C@H]1[C@H]2C(=O)OC target_desc=BHK-21 property_measured=Activity measured=Non-Toxic

---

Test system: BHK-21
Experiment: Cytotoxicity against MRP1-expressing BHK21 cells assessed as cell death after 72 hrs by MTT assay
Type: functional, cell-based
Conditions: Mesocricetus auratus, BHK-21, 72 h
Exercise: for every item that follows, state its recorded pEC50.
One number for each entry, as −log10 of the molar value.

Answered examples (3):
structure_string=CCC(/C=N\N=C1/C[C@@H]2[C@@H](CC)CN(C)[C@@H](Cc3c1[nH]c1ccccc31)[C@@H]2C(=O)OC)CC measured=4.74
structure_string=CC[C@H]1CN(C)[C@H]2Cc3c([nH]c4ccccc34)/C(=N/N=C\C(C)(C)C)C[C@H]1[C@H]2C(=O)OC measured=4.49
structure_string=CC[C@@H]1CN(C)[C@H]2Cc3c([nH]c4ccccc34)/C(=N/N=C\C(C)(C)C)C[C@H]1[C@H]2C(=O)OC measured=4.24

Please go through the list and note pEC50 for each compound.
1. CC[C@@H]1CN(C)[C@H]2Cc3c([nH]c4ccccc34)/C(=N/N=C\c3cccc(Br)c3)C[C@H]1[C@H]2C(=O)OC
2. CCC(/C=N\N=C1/C[C@@H]2[C@H](CC)CN(C)[C@@H](Cc3c1[nH]c1ccccc31)[C@@H]2C(=O)OC)CC

Reply:
1. 4.78
2. 4.56

---

Molecular target: BCRP (ABCG2) (Homo sapiens)
Sequence (Q9UNQ0 whole entry): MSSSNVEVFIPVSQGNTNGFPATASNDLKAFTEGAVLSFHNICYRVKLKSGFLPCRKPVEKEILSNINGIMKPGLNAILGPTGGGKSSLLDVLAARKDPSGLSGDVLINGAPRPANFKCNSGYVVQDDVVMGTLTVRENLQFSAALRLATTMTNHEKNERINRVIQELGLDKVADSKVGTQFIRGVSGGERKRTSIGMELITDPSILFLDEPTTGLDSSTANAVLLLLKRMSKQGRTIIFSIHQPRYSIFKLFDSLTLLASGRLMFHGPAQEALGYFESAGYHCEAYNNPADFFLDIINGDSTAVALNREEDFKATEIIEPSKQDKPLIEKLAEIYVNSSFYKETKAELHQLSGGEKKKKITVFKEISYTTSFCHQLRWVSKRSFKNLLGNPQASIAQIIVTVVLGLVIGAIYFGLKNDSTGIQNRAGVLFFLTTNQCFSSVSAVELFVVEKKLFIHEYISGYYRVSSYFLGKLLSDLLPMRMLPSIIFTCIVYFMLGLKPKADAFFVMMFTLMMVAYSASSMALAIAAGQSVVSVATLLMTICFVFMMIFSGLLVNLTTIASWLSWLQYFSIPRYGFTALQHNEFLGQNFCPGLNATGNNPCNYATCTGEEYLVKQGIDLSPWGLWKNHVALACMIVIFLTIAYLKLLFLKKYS
Experiment: Inhibition of BCRP (unknown origin) expressed in HEK293 cells assessed as reduction in mitoxantrone efflux at 20 uM incubated for 30 mins by flow cytometric analysis relative to control
Format: cell-based
Conditions: HEK293 cells expressing BCRP, probe mitoxantrone
Would you mind telling me the reported inhibition at 0.5 h, 20 µM of each entry?
Answers are plain numbers, in %.

The cases that follow already have their inhibition at 0.5 h, 20 µM on record.
structure_string=CC[C@H]1CN(C)[C@H]2Cc3c([nH]c4ccccc34)/C(=N/N=C\c3c[nH]c4ccccc34)C[C@H]1[C@H]2C(=O)OC property_measured="inhibition at 0.5 h, 20 µM" value_unit=% measured=4.9
structure_string=CC[C@H]1CN(C)[C@H]2Cc3c([nH]c4ccccc34)/C(=N/N=C\c3cccc(Cl)c3)C[C@H]1[C@H]2C(=O)OC property_measured="inhibition at 0.5 h, 20 µM" value_unit=% measured=-2.4
structure_string=CC[C@@H]1CN(C)[C@H]2Cc3c([nH]c4ccccc34)/C(=N/N=C\c3c[nH]c4ccccc34)C[C@H]1[C@H]2C(=O)OC property_measured="inhibition at 0.5 h, 20 µM" value_unit=% measured=4.2

Go through the list and state inhibition at 0.5 h, 20 µM for each entry.
1. CC[C@@H]1CN(C)[C@H]2Cc3c([nH]c4ccccc34)/C(=N/N=C\c3ccc(C)cc3)C[C@H]1[C@H]2C(=O)OC
2. CCC(/C=N\N=C1/C[C@@H]2[C@@H](CC)CN(C)[C@@H](Cc3c1[nH]c1ccccc31)[C@@H]2C(=O)OC)CC
3. CC[C@@H]1CN(C)[C@H]2Cc3c([nH]c4ccccc34)/C(=N/N=C\c3ccc[nH]3)C[C@H]1[C@H]2C(=O)OC

Reply:
[1.7, 8.2, 3.7]

Could I get inhibition at 0.5 h, 20 µM for every one of these entries?
1. CC[C@@H]1CN(C)[C@H]2Cc3c([nH]c4ccccc34)/C(=N/N=C\c3ccccc3[N+](=O)[O-])C[C@H]1[C@H]2C(=O)OC
2. CC[C@H]1CN(C)[C@H]2Cc3c([nH]c4ccccc34)/C(=N/N=C\c3ccc(C)cc3)C[C@H]1[C@H]2C(=O)OC
3. CC[C@@H]1CN(C)[C@H]2Cc3c([nH]c4ccccc34)/C(=N/N=C\c3ccc(O)c(OC)c3)C[C@H]1[C@H]2C(=O)OC

Reply:
1: -0.1; 2: 2.4; 3: 9

Ask: Data request, read-out inhibition at 0.5 h, 20 µM, for CC[C@H]1CN(C)[C@H]2Cc3c([nH]c4ccccc34)/C(=N/N=C\C3CCCC3)C[C@H]1[C@H]2C(=O)OC
Reply: 0.8

---

Molecular target: MRP1 (Homo sapiens)
Sequence (P33527 whole entry): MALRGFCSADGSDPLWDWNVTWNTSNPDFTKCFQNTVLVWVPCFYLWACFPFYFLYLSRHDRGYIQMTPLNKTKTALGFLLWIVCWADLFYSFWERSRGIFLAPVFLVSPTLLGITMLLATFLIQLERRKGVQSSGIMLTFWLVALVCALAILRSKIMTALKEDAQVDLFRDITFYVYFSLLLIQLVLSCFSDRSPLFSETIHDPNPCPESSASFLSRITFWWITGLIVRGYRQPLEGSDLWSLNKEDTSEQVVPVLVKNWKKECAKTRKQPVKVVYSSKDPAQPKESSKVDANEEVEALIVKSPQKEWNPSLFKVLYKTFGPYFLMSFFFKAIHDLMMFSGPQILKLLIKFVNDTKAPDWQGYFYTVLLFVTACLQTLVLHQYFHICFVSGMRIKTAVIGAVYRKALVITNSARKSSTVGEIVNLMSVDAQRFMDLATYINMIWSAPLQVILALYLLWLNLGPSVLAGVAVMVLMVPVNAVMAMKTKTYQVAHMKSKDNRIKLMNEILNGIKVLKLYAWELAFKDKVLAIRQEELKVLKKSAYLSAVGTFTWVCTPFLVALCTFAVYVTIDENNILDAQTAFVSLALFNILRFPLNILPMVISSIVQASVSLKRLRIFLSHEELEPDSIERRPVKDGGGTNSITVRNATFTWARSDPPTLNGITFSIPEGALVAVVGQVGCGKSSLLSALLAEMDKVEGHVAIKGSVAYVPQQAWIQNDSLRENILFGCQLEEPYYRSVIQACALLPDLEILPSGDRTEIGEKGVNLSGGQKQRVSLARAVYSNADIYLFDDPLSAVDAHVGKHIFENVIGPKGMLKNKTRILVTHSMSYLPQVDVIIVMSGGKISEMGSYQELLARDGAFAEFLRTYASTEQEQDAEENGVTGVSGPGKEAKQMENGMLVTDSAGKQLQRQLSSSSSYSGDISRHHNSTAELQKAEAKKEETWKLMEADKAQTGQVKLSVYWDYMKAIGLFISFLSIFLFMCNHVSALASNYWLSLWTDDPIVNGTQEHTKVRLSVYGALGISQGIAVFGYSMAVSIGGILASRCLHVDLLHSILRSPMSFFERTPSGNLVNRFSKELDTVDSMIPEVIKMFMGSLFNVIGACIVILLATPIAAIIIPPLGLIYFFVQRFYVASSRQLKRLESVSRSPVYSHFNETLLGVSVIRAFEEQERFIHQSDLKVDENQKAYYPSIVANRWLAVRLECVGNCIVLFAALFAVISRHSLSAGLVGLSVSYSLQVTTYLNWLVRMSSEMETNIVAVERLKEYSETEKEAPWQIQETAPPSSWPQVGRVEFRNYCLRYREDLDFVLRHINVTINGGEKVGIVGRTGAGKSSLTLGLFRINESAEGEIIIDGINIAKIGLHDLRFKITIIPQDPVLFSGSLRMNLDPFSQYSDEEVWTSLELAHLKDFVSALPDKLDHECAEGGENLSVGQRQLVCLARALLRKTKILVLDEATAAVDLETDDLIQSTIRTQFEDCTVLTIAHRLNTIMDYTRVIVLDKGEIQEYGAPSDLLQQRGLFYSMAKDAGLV
Experiment: Inhibition of MRP1 (unknown origin) expressed in HEK293FlpIN cells assessed as reduction in calcein-AM efflux at 20 uM incubated for 30 mins by flow cytometric analysis relative to control
Assay type: cell-based
Conditions: HEK293FlpIN cells expressing MRP1, probe calcein-AM
Think of 20% as a floor: if inhibition at 0.5 h, 20 µM stands on it or above, it is rule met; beneath it, rule not met.

Ask: inhibition at 0.5 h, 20 µM >= 20% for CC[C@H]1CN(C)[C@H]2Cc3c([nH]c4ccccc34)/C(=N/N=C\c3ccc[nH]3)C[C@H]1[C@H]2C(=O)OC ?
Reply: rule met

Ask: State whether the measured inhibition at 0.5 h, 20 µM reaches 20%, counting equality as reaching it, for CC[C@H]1CN(C)[C@H]2Cc3c([nH]c4ccccc34)/C(=N/N=C\c3cccc(Cl)c3)C[C@H]1[C@H]2C(=O)OC
Reply: rule not met

Ask: Can CC[C@@H]1CN(C)[C@H]2Cc3c([nH]c4ccccc34)/C(=N/N=C\c3ccc[nH]3)C[C@H]1[C@H]2C(=O)OC be said to have inhibition at 0.5 h, 20 µM at or above 20%?
Reply: rule not met

Ask: Check the entry CC[C@@H]1CN(C)[C@H]2Cc3c([nH]c4ccccc34)/C(=N/N=C\c3cccc(Br)c3)C[C@H]1[C@H]2C(=O)OC : does inhibition at 0.5 h, 20 µM equal or exceed 20%?
Reply: rule not met

Ask: Does inhibition at 0.5 h, 20 µM meet or surpass 20% for CCC(/C=N\N=C1/C[C@@H]2[C@@H](CC)CN(C)[C@@H](Cc3c1[nH]c1ccccc31)[C@@H]2C(=O)OC)CC ?
Reply: rule met

---

What inhibition at 0.5 h, 20 µM was measured for each of the following?
Biological target: MRP1 (Homo sapiens)
Experiment: Inhibition of MRP1 (unknown origin) expressed in HEK293FlpIN cells assessed as reduction in calcein-AM efflux at 20 uM incubated for 30 mins by flow cytometric analysis relative to control
Format: cell-based
Settings: HEK293FlpIN cells expressing MRP1, probe calcein-AM
Give bare numbers, in %.

The cases that follow already have their inhibition at 0.5 h, 20 µM on record.
structure_string=CC[C@H]1CN(C)[C@H]2Cc3c([nH]c4ccccc34)/C(=N/N=C\c3ccc(C)cc3)C[C@H]1[C@H]2C(=O)OC measured=20.4
structure_string=CC[C@@H]1CN(C)[C@H]2Cc3c([nH]c4ccccc34)/C(=N/N=C\c3ccccc3[N+](=O)[O-])C[C@H]1[C@H]2C(=O)OC measured=14.6
structure_string=CC[C@@H]1CN(C)[C@H]2Cc3c([nH]c4ccccc34)/C(=N/N=C\c3ccc([N+](=O)[O-])cc3)C[C@H]1[C@H]2C(=O)OC measured=23.4
structure_string=CC[C@@H]1CN(C)[C@H]2Cc3c([nH]c4ccccc34)/C(=N/N=C\C=C\c3ccccc3)C[C@H]1[C@H]2C(=O)OC measured=10
structure_string=CC[C@H]1CN(C)[C@H]2Cc3c([nH]c4ccccc34)/C(=N/N=C\C(C)(C)C)C[C@H]1[C@H]2C(=O)OC measured=15.9
structure_string=CC[C@@H]1CN(C)[C@H]2Cc3c([nH]c4ccccc34)/C(=N/N=C\C3CCCC3)C[C@H]1[C@H]2C(=O)OC measured=19.1
structure_string=CC[C@@H]1CN(C)[C@H]2Cc3c([nH]c4ccccc34)/C(=N/N=C\C(C)(C)C)C[C@H]1[C@H]2C(=O)OC measured=2.5
structure_string=CCC(/C=N\N=C1/C[C@@H]2[C@H](CC)CN(C)[C@@H](Cc3c1[nH]c1ccccc31)[C@@H]2C(=O)OC)CC measured=26.4
structure_string=CC[C@@H]1CN(C)[C@H]2Cc3c([nH]c4ccccc34)/C(=N/N=C\c3cccc(Cl)c3)C[C@H]1[C@H]2C(=O)OC measured=10.8
structure_string=CC[C@H]1CN(C)[C@H]2Cc3c([nH]c4ccccc34)/C(=N/N=C\c3cccc(Br)c3)C[C@H]1[C@H]2C(=O)OC measured=12.8

Please give inhibition at 0.5 h, 20 µM for each item listed below.
1. CC[C@H]1CN(C)[C@H]2Cc3c([nH]c4ccccc34)/C(=N/N=C\C=C\c3ccccc3)C[C@H]1[C@H]2C(=O)OC
2. CC[C@H]1CN(C)[C@H]2Cc3c([nH]c4ccccc34)/C(=N/N=C\c3ccccc3[N+](=O)[O-])C[C@H]1[C@H]2C(=O)OC

Reply:
1. 20.3
2. 29.5

Hi there! I need inhibition at 0.5 h, 20 µM for each item below, if you can.
1. CC[C@H]1CN(C)[C@H]2Cc3c([nH]c4ccccc34)/C(=N/N=C\c3c[nH]c4ccccc34)C[C@H]1[C@H]2C(=O)OC
2. CC[C@@H]1CN(C)[C@H]2Cc3c([nH]c4ccccc34)/C(=N/N=C\c3ccc(O)c(OC)c3)C[C@H]1[C@H]2C(=O)OC
3. CC[C@H]1CN(C)[C@H]2Cc3c([nH]c4ccccc34)/C(=N/N=C\C3CCCC3)C[C@H]1[C@H]2C(=O)OC

Reply:
70.5
87.3
35.5

Here are 4 molecules. What values of inhibition at 0.5 h, 20 µM were reported for them?
1. CC[C@@H]1CN(C)[C@H]2Cc3c([nH]c4ccccc34)/C(=N/N=C\c3c[nH]c4ccccc34)C[C@H]1[C@H]2C(=O)OC
2. CC[C@H]1CN(C)[C@H]2Cc3c([nH]c4ccccc34)/C(=N/N=C\c3ccc([N+](=O)[O-])cc3)C[C@H]1[C@H]2C(=O)OC
3. CC[C@H]1CN(C)[C@H]2Cc3c([nH]c4ccccc34)/C(=N/N=C\c3ccc(O)c(OC)c3)C[C@H]1[C@H]2C(=O)OC
4. CC[C@@H]1CN(C)[C@H]2Cc3c([nH]c4ccccc34)/C(=N/N=C\c3ccc(C)cc3)C[C@H]1[C@H]2C(=O)OC

Reply:
1: 50.2; 2: 47.5; 3: 80.7; 4: 8.8
